- Tested on: HCT-116 colon
- testName: NCI tumour cell line growth inhibition, 48 h
propertyLabel: TGI (µM)
Numbers only, in µM.

See these solved cases before continuing.
molecule="C/C=C(\\C)C(=O)N[C@H]1[C@@H](OC(C)=O)C[C@]2(C)C3CC[C@@]4(C)C(CC[C@@H]4C(C)N(C)C)C3CCC2[C@H]1O (stereo not given in full)" assayresult=4.34
molecule=O=c1c(/C=C/c2c(O)ccc3ccccc23)nnc2sc(-c3cccc([N+](=O)[O-])c3)nn12 assayresult=32.2
molecule=COc1cc(Cl)cc(-c2nn(C(=O)NCCN3CCN(C)CC3)cc2-c2ccncc2)c1 assayresult=31.3

Record lookup: for HCT-116 colon, what TGI belongs to COc1ccc2nc(-c3ccccc3)cc(Nc3ccc(C(C)=O)cc3)c2c1 ?
4.62

These entries and their values trace back to PubChem BioAssay (NCI).
